- TARGET_SYSTEM: EGFR L858R+T790M, endogenous (Homo sapiens, UniProt P00533, L858R/T790M)
- Construct: NCI-H1975 (EGFR L858R+T790M, endogenous); host or cells: NCI-H1975
- EXPERIMENTAL_DETAILS: pEGFR Y1068 ELISA assay, NCI-H1975 cells;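 further: sandwich ELISA of endogenous phospho-EGFR (Tyr1068) in lysates of treated cells, 11-point 1:3 serial dilution tested in duplicate per plate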
- Type: cell-based
- EXPERIMENTAL_SETUP: value marked (H1975): NCI-H1975 cells, 2 hrs compound treatment; read-out: pEGFRY1068 ELISA3T3T790M—L858R IC50 (nM), (H1975)
OBSERVABLE: IC50 (nM)
Hi! Could you send only the number? It should be in nM, unit omitted.

Give its IC50 value. Item: C=CC(=O)N(C)[C@H]1C[C@H](Oc2nc(Nc3cn(C)nc3C#N)nc3[nH]cc(Cl)c23)C1 [Example 80]
25

Try the molecule C=CC(=O)N1C[C@H](COc2nc(Nc3cnn(CCO)c3)nc3[nH]cc(Cl)c23)[C@@H](OC)C1 [Example 101]
48

Try the molecule C=CC(=O)N(C)[C@H]1C[C@H](Oc2nc(Nc3cnn(C)c3)nc3[nH]cc(-c4ccccn4)c23)C1 [Example 89]
6

Try the molecule C=CC(=O)N1C[C@@H]2CN(c3nc(Nc4cnn(C)c4)nc4[nH]cc(Cl)c34)C[C@]2(OC)C1 (single isomer, unassigned) [Example 88]
34

---

- TARGET_SYSTEM: EGFR L858R (Homo sapiens, UniProt P00533, L858R)
- Sequence (P00533 25-1210 L858R): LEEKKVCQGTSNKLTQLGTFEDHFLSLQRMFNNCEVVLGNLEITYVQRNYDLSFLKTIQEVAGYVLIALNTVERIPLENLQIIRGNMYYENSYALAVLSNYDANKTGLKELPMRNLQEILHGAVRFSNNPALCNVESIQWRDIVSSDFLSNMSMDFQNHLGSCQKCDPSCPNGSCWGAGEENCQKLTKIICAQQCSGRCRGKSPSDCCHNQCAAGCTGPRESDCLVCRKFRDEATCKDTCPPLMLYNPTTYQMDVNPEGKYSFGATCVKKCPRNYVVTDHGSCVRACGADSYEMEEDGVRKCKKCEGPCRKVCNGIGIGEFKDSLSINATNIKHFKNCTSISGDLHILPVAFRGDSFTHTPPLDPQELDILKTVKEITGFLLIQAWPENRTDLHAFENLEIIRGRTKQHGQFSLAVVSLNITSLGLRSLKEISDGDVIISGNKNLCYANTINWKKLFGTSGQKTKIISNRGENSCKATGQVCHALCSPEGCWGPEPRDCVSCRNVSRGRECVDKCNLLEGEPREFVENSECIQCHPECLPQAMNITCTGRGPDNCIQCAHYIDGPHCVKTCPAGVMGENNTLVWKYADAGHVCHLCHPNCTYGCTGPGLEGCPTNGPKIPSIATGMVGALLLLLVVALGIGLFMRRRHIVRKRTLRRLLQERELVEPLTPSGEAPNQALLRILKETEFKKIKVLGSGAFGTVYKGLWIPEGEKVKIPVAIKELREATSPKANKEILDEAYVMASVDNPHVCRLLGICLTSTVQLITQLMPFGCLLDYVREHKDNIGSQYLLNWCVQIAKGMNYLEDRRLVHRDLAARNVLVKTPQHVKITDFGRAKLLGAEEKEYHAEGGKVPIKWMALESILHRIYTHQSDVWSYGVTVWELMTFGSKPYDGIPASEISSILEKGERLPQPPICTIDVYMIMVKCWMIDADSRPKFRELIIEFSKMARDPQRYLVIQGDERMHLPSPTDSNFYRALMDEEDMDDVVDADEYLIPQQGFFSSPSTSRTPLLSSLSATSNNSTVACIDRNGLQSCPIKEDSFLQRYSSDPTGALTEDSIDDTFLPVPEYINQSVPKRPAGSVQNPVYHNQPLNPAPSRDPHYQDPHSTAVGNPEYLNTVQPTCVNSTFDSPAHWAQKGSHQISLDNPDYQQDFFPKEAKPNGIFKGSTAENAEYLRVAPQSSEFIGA
- EXPERIMENTAL_DETAILS: pEGFR Y1068 ELISA assay, NIH3T3/EGFR_L858R cells;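 further: sandwich ELISA of phospho-EGFR Tyr1068 in lysates of stably transfected NIH/3T3 pools after 2 h compound exposure at 37 °C, 11-point threefold dilution series run in duplicate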
- EXPERIMENTAL_SETUP: 3T3 cell line, 2 hrs compound treatment; read-out: pEGFRY1068 ELISA3T3 L858R IC50
I'd appreciate it if you marked entries MET when IC50 is lower than 100 nM and NOT MET when it is not.

Decide: IC50 of C=CC(=O)N1CCOC2(CCN(c3nc(Nc4cnn(C)c4)nc4[nH]cc(Cl)c34)C2)C1 (stereo not shown) strictly below 100 nM?
NOT MET

Try the molecule C=CC(=O)N(C)[C@H]1C[C@H](Oc2nc(Nc3cnn(C)c3)nc3[nH]cc(Cl)c23)C1
NOT MET

Try the molecule C=CC(=O)N1CCc2c(Oc3nc(Nc4cnn(C)c4)nc4[nH]cc(C#N)c34)cccc21
MET

Try the molecule C=CC(=O)N1C[C@@H]2[C@H](C1)[C@H]2Oc1nc(Nc2cnn(C)c2)nc2[nH]cc(Cl)c12
NOT MET

Try the molecule C=CC(=O)N1CCO[C@H](COc2nc(Nc3cnn(C)c3)nc3[nH]ccc23)C1
NOT MET

Try the molecule C=CC(=O)N1C[C@H](COc2nc(Nc3cnn(CCO)c3)nc3[nH]cc(Cl)c23)[C@@H](OC)C1
NOT MET

Try the molecule C=CC(=O)Nc1cccc(Oc2nc(Nc3cnn(C4CCN(C)C4)c3)nc3[nH]cnc23)c1 (stereo not shown)
NOT MET

Try the molecule C=CC(=O)N1C[C@@H](CC)[C@H](COc2nc(Nc3cnn(C)c3)nc3[nH]ccc23)C1 (single isomer, unassigned)
NOT MET

Try the molecule C=CC(=O)Nc1cccc(Oc2nc(Nc3ccn(C)n3)nc3[nH]ccc23)c1F
MET

Try the molecule C=CC(=O)N1C[C@H](COc2nc(Nc3cn(C)nc3OC)nc3[nH]cc(Cl)c23)[C@@H](OC)C1
NOT MET

---

- TARGET_SYSTEM: EGFR L858R+T790M (Homo sapiens, UniProt P00533, L858R/T790M)
- Sequence (P00533 25-1210 T790M/L858R): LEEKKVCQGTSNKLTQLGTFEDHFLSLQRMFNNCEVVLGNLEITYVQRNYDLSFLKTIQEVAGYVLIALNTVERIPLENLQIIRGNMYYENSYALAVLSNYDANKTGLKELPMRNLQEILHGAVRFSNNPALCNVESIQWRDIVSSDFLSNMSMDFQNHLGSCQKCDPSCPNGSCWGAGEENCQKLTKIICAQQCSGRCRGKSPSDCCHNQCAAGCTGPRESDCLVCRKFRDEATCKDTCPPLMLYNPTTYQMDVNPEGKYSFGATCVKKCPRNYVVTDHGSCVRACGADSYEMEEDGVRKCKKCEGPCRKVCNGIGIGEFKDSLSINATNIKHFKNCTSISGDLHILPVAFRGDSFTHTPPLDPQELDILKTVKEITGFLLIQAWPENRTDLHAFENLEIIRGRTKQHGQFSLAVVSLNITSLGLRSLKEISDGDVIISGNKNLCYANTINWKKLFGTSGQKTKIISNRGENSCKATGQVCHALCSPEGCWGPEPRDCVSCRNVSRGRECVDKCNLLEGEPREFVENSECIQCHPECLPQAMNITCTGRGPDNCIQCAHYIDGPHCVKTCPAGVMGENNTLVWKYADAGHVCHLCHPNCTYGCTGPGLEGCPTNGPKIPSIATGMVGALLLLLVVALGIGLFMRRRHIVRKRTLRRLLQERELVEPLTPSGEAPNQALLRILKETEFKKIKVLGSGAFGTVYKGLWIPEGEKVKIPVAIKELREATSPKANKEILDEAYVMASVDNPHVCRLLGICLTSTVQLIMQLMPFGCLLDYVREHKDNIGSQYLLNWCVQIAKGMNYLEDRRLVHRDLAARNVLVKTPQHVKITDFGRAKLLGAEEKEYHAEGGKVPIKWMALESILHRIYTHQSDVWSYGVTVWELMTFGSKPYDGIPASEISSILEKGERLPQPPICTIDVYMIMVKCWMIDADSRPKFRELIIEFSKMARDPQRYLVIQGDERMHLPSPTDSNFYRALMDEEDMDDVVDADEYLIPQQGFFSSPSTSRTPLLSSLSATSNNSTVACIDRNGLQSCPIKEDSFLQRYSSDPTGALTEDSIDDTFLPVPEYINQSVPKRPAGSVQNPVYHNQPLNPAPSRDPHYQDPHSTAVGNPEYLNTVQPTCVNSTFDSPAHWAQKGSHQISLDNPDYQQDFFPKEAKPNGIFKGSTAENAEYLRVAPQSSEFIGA
- EXPERIMENTAL_DETAILS: pEGFR Y1068 ELISA assay, NIH3T3/EGFR_L858R+T790M cells
- Assay type: cell-based
- EXPERIMENTAL_SETUP: 3T3 cell line, 2 hrs compound treatment; read-out: pEGFRY1068 ELISA3T3T790M—L858R IC50
OBSERVABLE: IC50 (nM)
Hi! Could you send only the number? It should be in nM, unit omitted.

Provide value of IC50 for this record tested with EGFR L858R+T790M (Homo sapiens, UniProt P00533, L858R/T790M): C=CC(=O)Nc1cccc(Oc2nc(Nc3cnn(C)n3)nc3[nH]ccc23)c1
20

Try the compound C=CC(=O)N1C[C@@H]2CN(c3nc(Nc4cnn(C)c4)nc4[nH]cc(Cl)c34)C[C@@H]2C1
20

Try the compound C=CC(=O)Nc1cccc(Oc2nc(Nc3ccn(C)n3)nc3[nH]cc(C#N)c23)c1
20

---

- TARGET_SYSTEM: EGFR Del (PC9) (Homo sapiens, UniProt P00533, DEL746-750)
- Construct: endogenous in cells; host or cells: PC-9
- Sequence (P00533 with tags, fused parts or gaps DEL746-750): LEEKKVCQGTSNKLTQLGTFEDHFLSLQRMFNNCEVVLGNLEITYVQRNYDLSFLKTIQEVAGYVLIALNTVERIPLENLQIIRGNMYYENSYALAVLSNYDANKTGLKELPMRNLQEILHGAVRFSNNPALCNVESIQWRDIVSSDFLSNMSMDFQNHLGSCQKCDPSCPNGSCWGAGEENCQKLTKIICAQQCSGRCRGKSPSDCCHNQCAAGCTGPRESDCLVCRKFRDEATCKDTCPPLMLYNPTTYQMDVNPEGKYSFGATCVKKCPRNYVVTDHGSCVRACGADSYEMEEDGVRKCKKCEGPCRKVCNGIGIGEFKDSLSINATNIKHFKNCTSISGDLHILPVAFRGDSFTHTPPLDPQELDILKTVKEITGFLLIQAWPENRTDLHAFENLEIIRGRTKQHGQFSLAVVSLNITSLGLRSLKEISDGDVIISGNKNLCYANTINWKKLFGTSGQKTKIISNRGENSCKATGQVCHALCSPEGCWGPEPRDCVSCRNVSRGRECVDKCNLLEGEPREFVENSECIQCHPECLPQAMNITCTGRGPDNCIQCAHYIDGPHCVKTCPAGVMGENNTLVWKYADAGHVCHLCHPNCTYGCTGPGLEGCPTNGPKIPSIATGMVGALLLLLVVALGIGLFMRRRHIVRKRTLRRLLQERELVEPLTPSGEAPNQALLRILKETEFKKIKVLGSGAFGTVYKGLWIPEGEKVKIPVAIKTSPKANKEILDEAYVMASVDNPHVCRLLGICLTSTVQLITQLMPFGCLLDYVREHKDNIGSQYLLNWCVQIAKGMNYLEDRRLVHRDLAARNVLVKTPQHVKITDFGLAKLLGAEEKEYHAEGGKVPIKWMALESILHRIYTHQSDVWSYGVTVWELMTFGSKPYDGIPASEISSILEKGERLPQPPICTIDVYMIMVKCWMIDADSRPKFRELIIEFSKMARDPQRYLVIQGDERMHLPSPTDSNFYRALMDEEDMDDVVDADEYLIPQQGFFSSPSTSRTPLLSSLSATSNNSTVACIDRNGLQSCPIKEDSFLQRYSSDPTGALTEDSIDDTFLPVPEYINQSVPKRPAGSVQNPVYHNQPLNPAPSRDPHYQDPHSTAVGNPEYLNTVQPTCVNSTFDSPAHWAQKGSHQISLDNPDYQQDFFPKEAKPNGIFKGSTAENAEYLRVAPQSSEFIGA
- EXPERIMENTAL_DETAILS: EGFR ELISA, PC9 Del cells;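 further: cellular EGFR autophosphorylation at Tyr1068 quantified by sandwich ELISA of cell lysates after 2 h compound exposure at 37 °C, 11-point threefold dilution series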
- Type: cell-based
- EXPERIMENTAL_SETUP: read-out: EGFR_ELISA9E PC9 Del IC50
Kindly supply the reported log10 of IC50 values for the records listed here.
log10 IC50, µM

Give its log10 of IC50 value. Item: C=CC(=O)N1C[C@H](COc2nc(Nc3cnn(CC(C)O)c3)nc3[nH]cc(Cl)c23)[C@@H](OC)C1 (single isomer, unassigned)
0.63

Try the molecule C=CC(=O)Nc1cccc(Oc2nc(Nc3cnn(C)c3)nc3[nH]cc(C#N)c23)c1
-1.36

Try the molecule C=CC(=O)N1C[C@H](COc2nc(Nc3cnn(C)c3)nc3[nH]cc(-c4ccccn4)c23)[C@@H](OC)C1
-0.08

Try the molecule C=CC(=O)N1C[C@H](COc2nc(Nc3cnn(CCO)c3)nc3[nH]cc(Cl)c23)[C@@H](OC)C1
0.82

Try the molecule C=CC(=O)N(C)[C@H]1C[C@H](Oc2nc(Nc3cnn(C)c3)nc3[nH]cc(-c4ccccn4)c23)C1
-1.38

Try the molecule C=CC(=O)N1C[C@H](COc2nc(Nc3cn(CC#N)nc3C)nc3[nH]cc(Cl)c23)[C@@H](OC)C1
-0.02

Try the molecule C=CC(=O)N1C[C@@H]2CN(c3nc(Nc4cnn(C)c4)nc4[nH]cc(Cl)c34)C[C@]2(O)C1
0.72

Try the molecule C=CC(=O)N1C[C@@H](F)[C@H](Nc2nc(Nc3cnn(C)c3)nc3[nH]cc(Cl)c23)C1 (single isomer, unassigned)
-1.06

Try the molecule C=CC(=O)N(C)[C@H]1C[C@H](Oc2nc(Nc3cnn(CC#N)c3)nc3[nH]cc(Cl)c23)C1
-0.48

Try the molecule C=CC(=O)N1CC[C@@H](Nc2nc(Nc3cnn(C)c3)nc3[nH]cc(C#N)c23)C1
0.51

Try the molecule C=CC(=O)N(C)[C@H]1C[C@H](Oc2nc(Nc3cnn(C)c3)nc3[nH]cc(Cl)c23)C1
-0.45

Try the molecule C=CC(=O)N1C[C@H](COc2nc(Nc3cnn(CC#N)c3)nc3[nH]cc(Cl)c23)[C@@H](OC)C1
-0.42

Try the molecule C=CC(=O)N(C)[C@H]1C[C@H](Nc2nc(Nc3cn(C)nc3C)nc3[nH]cc(Cl)c23)C1
-0.33

Try the molecule C=CC(=O)N[C@H]1C[C@@H](Oc2nc(Nc3cnn(C)c3)nc3[nH]cc(C#N)c23)C1 (single isomer, unassigned)
-0.01

Try the molecule C=CC(=O)N[C@H]1C[C@H](Oc2nc(Nc3cnn(C)c3)nc3[nH]cc(-c4ccccn4)c23)C1
0.44

Try the molecule C=CC(=O)N(C)[C@H]1C[C@H](Oc2nc(Nc3cnn(C)c3)nc3[nH]cc(-c4ccn(C)n4)c23)C1
0.37

Try the molecule C=CC(=O)N1C[C@H](Nc2nc(Nc3cnn(C)c3)nc3[nH]cc(Cl)c23)[C@@H](C(F)F)C1
-0.81

Try the molecule C=CC(=O)N1C[C@H](COc2nc(Nc3cn(C)nc3OC)nc3[nH]cc(Cl)c23)[C@@H](OC)C1
-0.23

Try the molecule C=CC(=O)N(C)[C@H]1C[C@H](Oc2nc(Nc3cnn(C)c3)nc3[nH]cc(-c4cccnc4)c23)C1
-1.04

Try the molecule C=CC(=O)N1C[C@@H]2CN(c3nc(Nc4cn(C)nc4OC)nc4[nH]cc(Cl)c34)C[C@@H]2C1
-0.09

Try the molecule C=CC(=O)N(C)[C@H]1C[C@H](Oc2nc(Nc3cn(C)nc3C)nc3[nH]cc(Cl)c23)C1
-0.25

Try the molecule C=CC(=O)N1C[C@H](Nc2nc(Nc3cnn(C)c3)nc3[nH]cc(Cl)c23)[C@@H](C(F)(F)F)C1
-1.32

---

- TARGET_SYSTEM: EGFR wildtype, endogenous (Homo sapiens)
- Construct: A549 (EGFR wildtype, endogenous)
- Sequence (P00533 25-1210): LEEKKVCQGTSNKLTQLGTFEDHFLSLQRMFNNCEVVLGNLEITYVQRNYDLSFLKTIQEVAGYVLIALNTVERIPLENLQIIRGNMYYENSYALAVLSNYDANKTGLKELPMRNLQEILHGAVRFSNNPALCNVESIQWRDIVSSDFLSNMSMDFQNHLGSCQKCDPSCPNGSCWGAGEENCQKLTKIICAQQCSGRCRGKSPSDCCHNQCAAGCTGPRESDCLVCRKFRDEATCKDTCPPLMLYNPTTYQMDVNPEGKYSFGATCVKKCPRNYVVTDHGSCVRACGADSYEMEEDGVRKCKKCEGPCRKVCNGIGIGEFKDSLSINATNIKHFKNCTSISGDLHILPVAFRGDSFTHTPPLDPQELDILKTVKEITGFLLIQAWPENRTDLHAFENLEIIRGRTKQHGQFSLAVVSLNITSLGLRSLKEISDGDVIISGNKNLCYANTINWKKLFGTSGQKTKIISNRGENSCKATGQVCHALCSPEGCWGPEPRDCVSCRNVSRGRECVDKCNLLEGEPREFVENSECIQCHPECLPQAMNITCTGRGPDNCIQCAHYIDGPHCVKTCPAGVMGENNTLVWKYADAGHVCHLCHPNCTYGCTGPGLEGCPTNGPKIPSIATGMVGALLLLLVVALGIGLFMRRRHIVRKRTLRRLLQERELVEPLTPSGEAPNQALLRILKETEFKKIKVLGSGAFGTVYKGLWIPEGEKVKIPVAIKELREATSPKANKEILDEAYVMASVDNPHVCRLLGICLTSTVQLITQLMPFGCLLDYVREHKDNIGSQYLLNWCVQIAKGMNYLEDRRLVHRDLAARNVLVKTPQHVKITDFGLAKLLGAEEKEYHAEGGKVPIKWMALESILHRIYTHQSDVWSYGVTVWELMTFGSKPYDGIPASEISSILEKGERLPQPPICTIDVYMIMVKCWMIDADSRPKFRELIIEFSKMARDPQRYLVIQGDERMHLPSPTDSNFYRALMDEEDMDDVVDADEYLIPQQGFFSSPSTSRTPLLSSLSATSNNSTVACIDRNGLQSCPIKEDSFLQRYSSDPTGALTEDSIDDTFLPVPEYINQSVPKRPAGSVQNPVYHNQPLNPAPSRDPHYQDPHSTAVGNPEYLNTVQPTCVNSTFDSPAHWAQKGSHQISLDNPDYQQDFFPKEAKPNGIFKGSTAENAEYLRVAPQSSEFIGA
- EXPERIMENTAL_DETAILS: pEGFR Y1068 ELISA assay, A549 cells
- EXPERIMENTAL_SETUP: full serum media, stimulated 10 min with EGF (40 ng/mL), read-out: pEGFRY1068 ELISAA549 IC50
OBSERVABLE: pIC50
// pIC50: -log10(molar conc.)

Provide value of pIC50 for this record tested with EGFR wildtype, endogenous (Homo sapiens): C=CC(=O)N(C)[C@H]1C[C@H](Oc2nc(Nc3cnn(C)c3)nc3[nH]cc(-c4ccccn4)c23)C1
5.78

Try the molecule C=CC(=O)N(C)[C@H]1C[C@H](Nc2nc(Nc3cn(C)nc3C)nc3[nH]cc(Cl)c23)C1
5.37

Try the molecule C=CC(=O)N1CC[C@@H](Nc2nc(Nc3cnn(C)c3)nc3[nH]cc(Cl)c23)C1
5.66

Try the molecule C=CC(=O)N1CCc2c(Oc3nc(Nc4cnn(C)c4)nc4[nH]ccc34)cccc21
5.23

Try the molecule C=CC(=O)Nc1cccc(Oc2nc(Nc3cnn(C)c3C)nc3[nH]ccc23)c1
5.17

Try the molecule C=CC(=O)Nc1cc(F)cc(Oc2nc(Nc3ccn(C)n3)nc3[nH]ccc23)c1
5.69

Try the molecule C=CC(=O)Nc1cccc(Oc2nc(Nc3cnn(CCN(C)C)c3)nc3[nH]ccc23)c1
5.53

Try the molecule C=CS(=O)(=O)N1CCc2c(Oc3nc(Nc4cnn(C)c4)nc4[nH]ccc34)cccc21
5.45
